TARGET DESC: T1, monkey C5-mmh (monkey, UniProt P01031 19-1676 (human entry), limits assumed)
T1 construct: recombinant, with C-terminal myc-myc-hexahistidine tag
T1 chain: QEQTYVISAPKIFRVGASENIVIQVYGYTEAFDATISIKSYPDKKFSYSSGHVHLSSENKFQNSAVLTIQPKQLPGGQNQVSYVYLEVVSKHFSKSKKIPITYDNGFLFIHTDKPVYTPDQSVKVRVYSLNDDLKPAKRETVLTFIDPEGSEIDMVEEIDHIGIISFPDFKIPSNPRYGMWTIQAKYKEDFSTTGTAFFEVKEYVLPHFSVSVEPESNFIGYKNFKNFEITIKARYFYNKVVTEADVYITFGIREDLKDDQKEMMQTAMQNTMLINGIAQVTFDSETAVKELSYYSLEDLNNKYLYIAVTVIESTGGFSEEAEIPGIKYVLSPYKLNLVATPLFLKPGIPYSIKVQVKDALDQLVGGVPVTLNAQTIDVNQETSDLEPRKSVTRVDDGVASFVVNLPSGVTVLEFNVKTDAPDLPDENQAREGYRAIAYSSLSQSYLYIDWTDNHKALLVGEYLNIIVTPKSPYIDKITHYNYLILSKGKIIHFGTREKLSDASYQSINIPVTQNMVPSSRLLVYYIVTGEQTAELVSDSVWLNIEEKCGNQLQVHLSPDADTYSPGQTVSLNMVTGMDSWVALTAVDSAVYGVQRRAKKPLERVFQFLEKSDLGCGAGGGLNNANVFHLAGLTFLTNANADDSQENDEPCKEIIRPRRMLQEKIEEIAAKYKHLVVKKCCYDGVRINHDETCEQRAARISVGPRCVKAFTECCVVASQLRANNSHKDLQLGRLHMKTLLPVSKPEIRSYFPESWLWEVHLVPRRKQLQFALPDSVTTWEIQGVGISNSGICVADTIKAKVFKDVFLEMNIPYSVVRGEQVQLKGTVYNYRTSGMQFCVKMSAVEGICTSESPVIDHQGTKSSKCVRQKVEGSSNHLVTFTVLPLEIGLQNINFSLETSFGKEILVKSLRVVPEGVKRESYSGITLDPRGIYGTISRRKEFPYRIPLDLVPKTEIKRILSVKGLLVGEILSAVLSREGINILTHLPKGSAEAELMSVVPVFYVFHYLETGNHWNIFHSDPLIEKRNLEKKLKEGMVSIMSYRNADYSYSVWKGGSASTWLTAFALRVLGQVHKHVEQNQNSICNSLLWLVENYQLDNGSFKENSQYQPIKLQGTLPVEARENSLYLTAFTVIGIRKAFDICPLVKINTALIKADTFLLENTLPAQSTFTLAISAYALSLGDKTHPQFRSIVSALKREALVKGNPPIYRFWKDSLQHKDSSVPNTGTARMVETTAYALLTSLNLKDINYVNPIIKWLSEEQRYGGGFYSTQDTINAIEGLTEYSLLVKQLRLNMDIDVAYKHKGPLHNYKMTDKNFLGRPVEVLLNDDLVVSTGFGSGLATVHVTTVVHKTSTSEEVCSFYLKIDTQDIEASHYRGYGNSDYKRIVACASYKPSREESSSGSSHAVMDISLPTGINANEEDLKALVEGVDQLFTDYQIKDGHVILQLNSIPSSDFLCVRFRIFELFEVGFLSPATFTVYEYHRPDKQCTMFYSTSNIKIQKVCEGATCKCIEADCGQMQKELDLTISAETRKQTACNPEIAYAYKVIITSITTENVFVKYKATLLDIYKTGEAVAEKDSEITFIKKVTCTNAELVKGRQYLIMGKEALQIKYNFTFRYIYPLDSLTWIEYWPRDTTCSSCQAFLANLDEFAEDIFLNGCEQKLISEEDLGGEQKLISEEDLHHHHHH
METHOD DESCRIPTION: SPR (Biacore), mAb captured, dissociation of monkey C5 at pH7.4 vs pH6.0, 37°C
MEASURE: t½ Ratio pH7.4/pH6.0

Query :: Could you share which t½ Ratio pH7.4/pH6.0 value was measured for H4H12175P (antibody, human IgG4, V domains shown, H4H: human IgG4 Fc with S108P hinge mutation) VH: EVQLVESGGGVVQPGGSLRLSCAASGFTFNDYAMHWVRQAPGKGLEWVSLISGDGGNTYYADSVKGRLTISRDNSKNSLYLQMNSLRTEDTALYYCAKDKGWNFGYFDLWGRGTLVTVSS VL: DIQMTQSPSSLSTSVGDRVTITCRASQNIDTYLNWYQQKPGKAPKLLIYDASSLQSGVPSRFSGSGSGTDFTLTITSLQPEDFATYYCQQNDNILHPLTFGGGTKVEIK ?
Result :: 0.4
